Target: Thyrotropin receptor (Homo sapiens) (UniProt P16473)
Sequence (P16473 whole entry, looked up): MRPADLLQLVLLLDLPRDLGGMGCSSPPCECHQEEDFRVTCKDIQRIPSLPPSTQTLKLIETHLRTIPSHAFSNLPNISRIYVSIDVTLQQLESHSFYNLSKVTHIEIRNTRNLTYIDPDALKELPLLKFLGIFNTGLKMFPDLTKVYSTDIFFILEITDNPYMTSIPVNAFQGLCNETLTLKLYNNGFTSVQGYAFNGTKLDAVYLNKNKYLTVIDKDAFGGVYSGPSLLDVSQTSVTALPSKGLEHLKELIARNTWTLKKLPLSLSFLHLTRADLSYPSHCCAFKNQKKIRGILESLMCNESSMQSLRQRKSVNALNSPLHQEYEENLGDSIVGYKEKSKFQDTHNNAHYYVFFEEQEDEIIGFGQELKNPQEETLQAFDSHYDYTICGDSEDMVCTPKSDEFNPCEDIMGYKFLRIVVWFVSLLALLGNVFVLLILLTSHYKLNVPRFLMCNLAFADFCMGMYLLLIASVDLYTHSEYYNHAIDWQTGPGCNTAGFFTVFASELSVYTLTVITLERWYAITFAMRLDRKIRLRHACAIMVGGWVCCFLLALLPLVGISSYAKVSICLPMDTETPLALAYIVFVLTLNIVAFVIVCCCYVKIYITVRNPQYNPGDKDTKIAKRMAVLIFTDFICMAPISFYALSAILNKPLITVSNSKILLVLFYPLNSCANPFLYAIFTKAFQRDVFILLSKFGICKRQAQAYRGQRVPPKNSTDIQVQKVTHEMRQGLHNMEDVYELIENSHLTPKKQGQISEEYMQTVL
Assay: Antagonists of the Thyroid Stimulating Hormone Receptor: HTS campaign; also: % is scaled to controls: 0 for no effect and ±100 for the full control effect
Conditions: TSHR-expressing cells, TSH-stimulated cAMP HTRF, 2 h; at 11.5 µM; active compounds read low
Hit rate of the full screen: of about 330,000 compounds, about 670 (0.2%) were called active. The list comes from a sample in which actives are over-represented; it also holds close analogues and randomly drawn compounds.
MEASURE NAME: activity change, negative = inhibition (%)
Give just the number in %; leave the unit off.

{"columns": ["MOLECULE", "STUDY SYSTEM", "activity change, negative = inhibition / %"],
 "data": [
  ["Cc1cccc(C)c1NC(=O)CSc1nc2c([nH]1)c(=O)n(C)c(=O)n2C", "Thyrotropin receptor (Homo sapiens) (UniProt P16473)", -2.1],
  ["O=C(CSc1nc(-c2ccccc2)cs1)Nc1cccc([N+](=O)[O-])c1", "Thyrotropin receptor (Homo sapiens) (UniProt P16473)", -78.8],
  ["O=C(CCN1C(=O)C2C3CCC(C3)C2C1=O)Nc1ccc(Cl)cc1Cl (stereo not drawn)", "Thyrotropin receptor (Homo sapiens) (UniProt P16473)", 1.9],
  ["CC(=O)N=c1ncn(CC(COC(C)=O)OC(C)=O)c2nc[nH]c12 (stereo not drawn)", "Thyrotropin receptor (Homo sapiens) (UniProt P16473)", -10.8],
  ["COc1cc(C2NC(=O)NC(c3ccccc3)=C2C(C)=O)c(Br)cc1OCC(N)=O (stereo not drawn)", "Thyrotropin receptor (Homo sapiens) (UniProt P16473)", -8.27],
  ["O=C(Nc1ccccc1Cl)/C(Cl)=C(\\Cl)S(=O)c1ccccc1 (stereo not drawn)", "Thyrotropin receptor (Homo sapiens) (UniProt P16473)", -71.3],
  ["Cc1sc2ncn(CC(=O)NCCCC(=O)N(C)Cc3ccccc3)c(=O)c2c1C", "Thyrotropin receptor (Homo sapiens) (UniProt P16473)", 3.25]
]}

Query molecule follows.
Ask: Tell me the measured activity change, negative = inhibition of CC1(c2ccc3ccccc3c2)NC(=O)N(CC(N)=O)C1=O (stereo not drawn) , please.
Result: -6.17

---

Biological target: Thyrotropin receptor (Homo sapiens)
Assay: Antagonists of the Thyroid Stimulating Hormone Receptor: HTS campaign; also: % is scaled to controls: 0 for no effect and ±100 for the full control effect
Settings: TSHR-expressing cells, TSH-stimulated cAMP HTRF, 2 h; at 11.5 µM; active compounds read low
The campaign covered roughly 330,000 compounds. About 670 (0.2%) were called active. This excerpt belongs to a sample that is enriched for actives.
MEASURE NAME: activity change, negative = inhibition (%)
Give just the number in %; leave the unit off.

{"columns": ["COMPOUND", "STUDY SYSTEM", "activity change, negative = inhibition / %"],
 "data": [
  ["Cc1c(C)n2c(SCC(=O)NC3CCCC3)nnc2[nH]c1=O", "Thyrotropin receptor (Homo sapiens)", -8.74],
  ["O=C1C=C(c2cccc(Cl)c2O)C[C@@H](c2ccc(F)cc2)C1", "Thyrotropin receptor (Homo sapiens)", -23],
  ["COC(=O)c1ccc(COC(=O)c2c(C)nn(Cc3ccccc3Cl)c2Cl)o1", "Thyrotropin receptor (Homo sapiens)", -21.4]
]}

Ask: Reported activity change, negative = inhibition for Thyrotropin receptor (Homo sapiens), given CN(C)c1ccc(S(=O)(=O)NCC(=O)NCC2CCCCC2)cc1[N+](=O)[O-] ?
Result: 6.75

Ask: Reported activity change, negative = inhibition for Thyrotropin receptor (Homo sapiens), given CSc1nnc(-c2ccc(C(F)(F)F)cn2)o1 ?
Result: 7.33

Ask: Reported activity change, negative = inhibition for Thyrotropin receptor (Homo sapiens), given O=C1CCC(C(=O)N2CCCCO2)CN1Cc1cccc(C(F)(F)F)c1 (stereo unspecified) ?
Result: 15.4

Ask: Reported activity change, negative = inhibition for Thyrotropin receptor (Homo sapiens), given CC1(C)NC(=O)N(CC(=O)N2CCN(S(=O)(=O)c3ccccc3F)CC2)C1=O ?
Result: 1.38

Ask: Reported activity change, negative = inhibition for Thyrotropin receptor (Homo sapiens), given Cc1ccc(S(=O)(=O)NCCCn2ccnc2)cc1C(=O)NC(C)C ?
Result: -0.615
